Provenance of the data: paper doi:10.1101/2024.01.18.576231v1

tested_on: CRBN_ΔHBD (Homo sapiens, UniProt Q96SW2, INS193GNGNSG/DEL194-248)
assay_overview: fluorescence polarization, displacement of Cy5-thalidomide
test_conditions: […] Cy5-thalidomide tracer, pH […]
measured_attribute: EC50 (nM)

compound	unit_info	EC50
Cc1nn(CCO)cc1CNc1ccc2c(c1)CN(C1CCC(=O)NC1=O)C2=O (stereo not shown)	nM	257
O=C1CCC(N2Cc3c(C=C4CCOC4)cccc3C2=O)C(=O)N1 (stereo not shown)	nM	193
NC(=O)N1CCC(C#Cc2cccc3c2CN(C2CCC(=O)NC2=O)C3=O)CC1 (stereo not shown)	nM	218
COc1cc(N)cnc1-c1ccc2c(c1)CN(C1CCC(=O)NC1=O)C2=O (stereo not shown)	nM	151
COc1nccnc1CNc1ccc2c(c1)CN(C1CCC(=O)NC1=O)C2=O (stereo not shown)	nM	197
COc1cccc2c1CN(C1CCC(=O)NC1=O)C2=O (stereo not shown)	nM	223
Nc1c(O)ccc2c1C(=O)N(C1CCC(=O)NC1=O)C2=O (stereo not shown)	nM	187
